assay: qHTS for Inhibitors of human tyrosyl-DNA phosphodiesterase 1 (TDP1): qHTS in cells in absence of CPT; conditions: DT40 Tdp1-/- hTDP1 cells, no CPT, ATP luminescence, 48 h; further: nearly all actives have a fitted effect of over 55% in size
Hit rate of the full screen: of about 420,000 compounds, about 64,000 (15%) were called active. Another 27% or so got no clear call; they are omitted. The call rests on the fitted dose curve; in most records, active means well fitted inhibition curve with a large enough effect; inconclusive means small, poorly fitted or top-dose-only effect; inactive means flat fitted curve, though single readings scatter. The list is a sample of the results.
Valid outcomes are listed here; reply with one: TRUE = active, FALSE = inactive

Ask: Record lookup: outcome of this test for O=C(CSCc1c(F)cccc1Cl)NCC1CCCO1 (centres undefined) ?
Result: FALSE

Ask: Record lookup: outcome of this test for Cc1noc(C)c1C(=O)N(CC(=O)NC1CCCC1)Cc1ccccc1F ?
Result: FALSE

Ask: Record lookup: outcome of this test for CCOc1ccc(N2C(=O)CC(N(O)c3ccccc3)C2=O)cc1 (centres undefined) ?
Result: FALSE

Ask: Record lookup: outcome of this test for CNCC(O)CN1CCN(c2ccccc2OC)CC1 (centres undefined) ?
Result: FALSE

Ask: Record lookup: outcome of this test for CC1(C)CC(=O)c2sc(N)nc2C1 ?
Result: FALSE

Ask: Record lookup: outcome of this test for COc1ccc2c(c1OC)C(=O)OC2Nc1nc(-c2ccccc2)cs1 (centres undefined) ?
Result: TRUE

Ask: Record lookup: outcome of this test for N#CCC(=O)N/N=C/c1cn(Cc2ccc3ccccc3c2)c2ccccc12 ?
Result: TRUE

Ask: Record lookup: outcome of this test for O=C(O)c1ccccc1C(=O)NC1=NN(c2ccccc2)CC1 ?
Result: FALSE

Ask: Record lookup: outcome of this test for CCc1nnc(NC(=O)Cc2cccs2)s1 ?
Result: FALSE

Ask: Record lookup: outcome of this test for CCn1ncc(CNC(=O)C2(C)CC2(Br)Br)c1C (centres undefined) ?
Result: FALSE

Ask: Record lookup: outcome of this test for CCOc1ccc2nc(Nc3nc4ccc(NC(C)=O)cc4s3)sc2c1 ?
Result: TRUE

Ask: Record lookup: outcome of this test for O=C(CSc1ncnc2sccc12)NC1CCS(=O)(=O)C1 (centres undefined) ?
Result: FALSE

Ask: Record lookup: outcome of this test for CC(=O)Nc1ccc2nc(NC(=O)CS(=O)(=O)c3ccc(F)cc3)sc2c1 ?
Result: FALSE

Ask: Record lookup: outcome of this test for CCc1ccccc1NC(=O)[C@@H]1CCC(=O)N1C1OC(=O)c2c1ccc(OC)c2OC (some centres undefined) ?
Result: FALSE

Ask: Record lookup: outcome of this test for COc1ccccc1N1CCN(CC(=O)NC(=O)NCc2ccco2)CC1 ?
Result: FALSE

Ask: Record lookup: outcome of this test for CCOC(CNC(=O)C1CCN(S(=O)(=O)c2ccc3nc4c(c(C(=O)O)c3c2)CC(C)CC4)CC1)OCC (centres undefined) ?
Result: FALSE

Ask: Record lookup: outcome of this test for CCOC(=O)N1CCN(c2c(NCCCN3CCCC(C)C3)c(=O)c2=O)CC1 (centres undefined) ?
Result: FALSE

Ask: Record lookup: outcome of this test for Cc1ccc(CNC(=O)Cc2cn(C)c3ccccc23)cc1 ?
Result: FALSE

Ask: Record lookup: outcome of this test for NNC(=O)C1CC(O)CN1S(=O)(=O)c1ccc(Cl)cc1 (centres undefined) ?
Result: FALSE

Ask: Record lookup: outcome of this test for Cc1ccc2sc(NNC(=O)c3ccc4c(c3)OCCO4)nc2c1C ?
Result: FALSE

Ask: Record lookup: outcome of this test for CNC(=O)c1ccc2nc(NC(C)=O)sc2c1 ?
Result: FALSE

Ask: Record lookup: outcome of this test for Cc1nc(Cl)c2oc3ccccc3c2n1 ?
Result: FALSE

Ask: Record lookup: outcome of this test for CCCS(=O)(=O)c1c(Nc2ccccc2C)sc(C(=O)c2ccccc2)c1N ?
Result: TRUE

Ask: Record lookup: outcome of this test for Fc1ccc(-c2ccc(NCCN3CCOCC3)nn2)cc1 ?
Result: FALSE
